Assign yeast fitness to each entry below.
B1: tRNA (parent)
chain: GUUCCGUUGGCGUAAUGGUAACGCGUCUCCCUCCUAAGGAGAAGACUGCGGGUUCGAGUCCCGUACGGAACG

variants of: B1; assay: yeast fitness relative to wild type (ratio to wild type); higher = fitter; tRNA-Arg(CCU), competitive growth, 37 C, YPD
Fewer inactive variants are shown than the library holds.

// known answers, use as guide
| mutation_id | assay_result |
| --- | --- |
| C4G A14G U64C | ≤ 0.5 |
| U13A G17A G51A C62U G67C | ≤ 0.5 |
| U8A C11G C34G C60G A65U | ≤ 0.5 |
| G12C A43G C61U | ≤ 0.5 |
| C31U U59A | 0.771 |

Batch request: yeast fitness for each of the following variants.
1. C31A U59A A70C
2. G9A C27G C31U C46G G51C G52A
3. A15U C33U G44C C55A
4. A15G C24A C66U

1. ≤ 0.5
2. ≤ 0.5
3. ≤ 0.5
4. ≤ 0.5
